Target entity: Cytochrome P450 2C9 (Homo sapiens) (UniProt P11712)
Sequence (P11712 whole entry, looked up): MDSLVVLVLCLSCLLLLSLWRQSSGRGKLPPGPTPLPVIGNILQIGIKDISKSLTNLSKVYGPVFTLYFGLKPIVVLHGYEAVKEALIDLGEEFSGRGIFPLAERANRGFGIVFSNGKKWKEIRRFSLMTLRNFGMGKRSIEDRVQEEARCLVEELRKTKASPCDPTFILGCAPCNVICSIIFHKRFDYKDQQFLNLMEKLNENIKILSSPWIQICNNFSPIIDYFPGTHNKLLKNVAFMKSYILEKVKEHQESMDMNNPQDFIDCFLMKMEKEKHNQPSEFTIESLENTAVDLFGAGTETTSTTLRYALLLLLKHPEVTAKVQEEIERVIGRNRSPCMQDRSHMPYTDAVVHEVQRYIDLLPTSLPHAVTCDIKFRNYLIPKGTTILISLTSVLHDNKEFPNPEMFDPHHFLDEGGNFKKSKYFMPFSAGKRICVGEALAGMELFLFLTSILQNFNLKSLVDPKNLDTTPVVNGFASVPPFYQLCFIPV
Measurement description: qHTS Assay for Inhibitors and Substrates of Cytochrome P450 2C9 (AID 883); also: nearly all actives have a fitted effect of over 60% in size
Experimental parameters: recombinant CYP2C9, luciferin-H luminescence, 60 min; series mostly up to 57.1 µM
Results filed as inconclusive are left out. Activity calls are given as the source filed them. Calls follow the shape of the dose curve; as a rule, active = well fitted inhibition curve with a large enough effect; inconclusive = small, poorly fitted or top-dose-only effect; inactive = no such curve, though single readings can be large or run the other way.
Outcomes: TRUE (active), FALSE (inactive)

Substance smiles: Nc1cc(=O)[nH]c(N)n1
Qualitative label: FALSE
--
Substance smiles: Nc1ccc(S(=O)(=O)Nc2nccs2)cc1
Qualitative label: FALSE
--
Substance smiles: CN(C)CCCN1c2ccccc2CCc2ccccc21
Qualitative label: FALSE
--
Substance smiles: Cc1c(Cl)cccc1Nc1ccccc1C(=O)O
Qualitative label: TRUE
--
Substance smiles: CC(C)C(=O)c1c(C(C)C)nn2ccccc12
Qualitative label: FALSE
